# target.desc: CHO-CHOP luciferase reporter, UPR activation, luminescence
# test.details: CHOP reporter induction, apoptotic UPR branch – CHO-CHOP cells, luciferase luminescence, confirmation (AID 489024);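 further: compounds added alone to reporter cells with no tunicamycin stress co-treatment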
Calls of active or inactive are those of the source.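 How the source made its calls: active means compounds whose mean EC50, the dose giving half the maximal reporter activation, is at or below a set limit; inactive means the rest.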
Just give me one of these, please: active, inactive

[[record]]
molecule = "O=C(NC1CCCC1)C(c1ccc(F)cc1)N(Cc1ccc(Cl)cc1)C(=O)CCl (stereo not given)"
category_label = "active"


Fill in: this test's call for "Cc1ccc(Cc2cnc(NC(=O)/C(C#N)=C/c3ccc(-c4ccc([N+](=O)[O-])cc4)o3)s2)cc1" is ___ inactive

Fill in: this test's call for "COc1ccc(CCNC(=O)c2coc(=O)c(Br)c2)cc1" is ___ active

Fill in: this test's call for "Cc1c(C(=O)c2no[n+]([O-])c2C(=O)c2cnn(C)c2C)cnn1C" is ___ inactive

Fill in: this test's call for "O=C(N/N=C(\c1ccccc1)c1cccnc1)c1cccc(F)c1" is ___ active

Fill in: this test's call for "Cc1cc(C(=O)CCl)c(C)n1-c1cccc(S(=O)(=O)N2CCOCC2)c1" is ___ active

Fill in: this test's call for "C/C(=N\NC(=O)c1ccc(Cl)c(Cl)c1)c1ccccn1" is ___ active

Fill in: this test's call for "Cc1[nH]c2c(C)cccc2c1CCNC(=O)c1ccc2c(c1[N+](=O)[O-])C(=O)c1ccccc1C2=O" is ___ active

Fill in: this test's call for "COc1ccc(O)c(/C=N/Nc2nc(Nc3ccccc3)nc(-n3nc(C)cc3C)n2)c1" is ___ active

Fill in: this test's call for "Oc1c(Cl)cc(CN2CCOCC2)c2cccnc12" is ___ active
